Taken from ChEMBL document CHEMBL1201862.

System: MDA-MB-231
Test: NCI tumour cell line growth inhibition, 48 h
Calls of active or inactive are those of the source. Cut-off read from the data, not from the text of the source: active = GI50 up to about 1.1 µM and inactive = higher.
Your response should consist of one outcome taken from active, inactive

Example results:
Cc1cc(C)c2c(=N)c3ccccc3n(CCCCCCn3c4ccccc4c(=N)c4c(C)cc(C)nc43)c2n1    active
[O-][Cl+3]([O-])([O-])[O-].[O-][Cl+3]([O-])([O-])[O-].c1ccn2c(N3CCOCC3)[n+]3c4ccccc4[n+]4c(N5CCOCC5)n5ccccc5c4c3c2c1    inactive

For CCOC(=O)c1cc(C2(O)CCN(Cc3ccccc3)C2=O)c(-c2cc(C)no2)[nH]1 (stereo not drawn) , what call appears in the results of this test?
inactive
